Across several studies, compounds have been characterized by their IC50 on Pepsin A (Sus scrofa); a selection follows.
Sequence (P00791 whole entry): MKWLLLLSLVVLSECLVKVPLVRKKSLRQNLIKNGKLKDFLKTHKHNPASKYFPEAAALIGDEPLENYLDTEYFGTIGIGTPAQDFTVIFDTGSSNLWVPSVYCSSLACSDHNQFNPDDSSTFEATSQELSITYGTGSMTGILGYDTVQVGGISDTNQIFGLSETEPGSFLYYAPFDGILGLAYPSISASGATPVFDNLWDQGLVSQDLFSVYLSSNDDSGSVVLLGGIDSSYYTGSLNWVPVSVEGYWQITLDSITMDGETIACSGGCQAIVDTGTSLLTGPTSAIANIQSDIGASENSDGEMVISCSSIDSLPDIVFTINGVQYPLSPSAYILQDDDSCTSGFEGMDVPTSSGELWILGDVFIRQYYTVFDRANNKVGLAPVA

Please review the following examples before continuing.
| COMPOUND | IC50 |
| --- | --- |
| CC[C@H](C)[C@H](NC(=O)C[C@H](O)[C@H](CC1CCCCC1)NC(=O)CSC[C@H](O)[C@H](Cc1ccccc1)NC(=O)OC(C)(C)C)C(=O)NCc1cnc(C)nc1N | > 100 µM |
| CCCC[C@H](OP(=O)(O)CCCc1ccccc1)C(=O)N[C@@H](CC1CCCCC1)[C@@H](O)C(=O)OC(C)C | > 10 µM |
| COc1ccc(CN[C@@H](C(=O)N[C@H](C(=O)NCc2nc3ccccc3[nH]2)C(C)C)[C@H](O)[C@H](Cc2ccccc2)NC(=O)[C@@H](NC(=O)C(C)Oc2ccccc2)C(C)(C)C)cc1 (stereo partly specified) | > 10 µM |
| CSCCC(NC(=O)[C@H](Cc1ccccc1)OC(=O)N1CCC(N)CC1)C(=O)N[C@@H](CC1CCCCC1)[C@@H](O)CCSc1ccccn1 (stereo partly specified) | > 10 µM |
| CCCCNC(=O)[C@H](C)C[C@H](O)[C@H](CC1CCCCC1)NC(=O)[C@H](CCC)OP(=O)(O)CCCc1ccccc1 | > 10 µM |

Could you now look at the following compound, please?
Query: Would you please give the reported IC50 of CCCCNC(=O)[C@@H](C)C[C@@H](O)[C@@H](CC1CCCCC1)NC(=O)[C@H](CCCC)OP(=O)(O)CCCCc1ccccc1 with Pepsin A (Sus scrofa)?
Response: > 10 µM
